These entries and their values trace back to ChEMBL document CHEMBL3988442.

Reported Percent Effect values are given for each entry in this list.
- Tested on: Wolbachia pipientis
- Procedure text: Anti-Wolbachia Cell-Based Screen
- Type: functional
- Design: scale not given: in the data most compounds retested in dose-response had high values
- Measurement setup: 5 µM
Out of some 48,000 compounds screened, about 13,000 (27%) showed an effect of 50% or more. The list shows a part of the results.
Measured quantity: Percent Effect (%)

[[record]]
compound = "COCC1CN(Cc2cc(C)on2)Cc2cnn(C)c21.O=C(O)C(F)(F)F.O=C(O)C(F)(F)F (centres undefined)"
numeric_result = -1.756

[[record]]
compound = "CC(=O)Nc1nc(C(=O)N2CCCC2c2noc(C)n2)cs1 (centres undefined)"
numeric_result = 1.192

[[record]]
compound = "CCOC(=O)[C@H]1[C@@H](O)C(=O)N(C)C12CCN(C(=O)CC(C)(C)C)CC2"
numeric_result = 89.62

[[record]]
compound = "CC(=O)Nc1nc2c(s1)C(C)(C)Nc1ccccc1S2"
numeric_result = 66.2

[[record]]
compound = "CCc1cnc(CN(C(C)=O)C2CCN(CCN3CCCCC3)C2)o1 (centres undefined)"
numeric_result = 112.7

[[record]]
compound = "CCN1CC2(CC1=O)CN(C(C)=O)CCN(C(=O)c1ccco1)C2 (centres undefined)"
numeric_result = 6.232

[[record]]
compound = "COCC1CN(C(=O)N2CCCC2)Cc2cnn(CC3CCCC3)c21 (centres undefined)"
numeric_result = 9.026

[[record]]
compound = "O=C(c1ccco1)N1CCC2(CC1)C(=O)NCCN2CC1CC1"
numeric_result = 0.967

[[record]]
compound = "CCc1cnc(CN(C(C)=O)C2CCN(CCS(C)(=O)=O)C2)o1 (centres undefined)"
numeric_result = -15.83

[[record]]
compound = "Cc1cc(C)nc(C2CCCN2C(=O)c2coc(C)n2)n1 (centres undefined)"
numeric_result = 95.19

[[record]]
compound = "C=C(C)CN(CC)C(=O)Nc1ccccc1CN(C)C(C)=O"
numeric_result = 4.408

[[record]]
compound = "CN(C)c1cccc(C(=O)N2CCCc3cc(OC(F)(F)F)ccc32)c1"
numeric_result = 5.74

[[record]]
compound = "CC(=O)N1CCC2(CC1)[C@@H]1CN(C(=O)N(C)C)C[C@@H]1C(=O)N2C"
numeric_result = -8.179

[[record]]
compound = "Cc1ccc(CN2CCCN(Cc3cscn3)CC2)cc1"
numeric_result = 8.803

[[record]]
compound = "CCc1cnc(CN(C(C)=O)C2CCN(CC3(O)CCCCC3)C2)o1 (centres undefined)"
numeric_result = 86.51

[[record]]
compound = "COc1cc(C(=O)N2CCC3(CC2)Nc2ccccc2NC3=O)ccn1"
numeric_result = 31.29

[[record]]
compound = "CC(C)CN1C[C@@H]2C(=O)N(C)C3(CCN(C(=O)C(C)C)CC3)[C@@H]2C1.O=C(O)C(F)(F)F"
numeric_result = 15.99

[[record]]
compound = "Fc1cccc2c1CCC2NCc1ccc(N2CCOCC2)cc1 (centres undefined)"
numeric_result = 19.23

[[record]]
compound = "Cn1c(CCNc2nccnc2C#N)nc2cc(Cl)ccc21"
numeric_result = -1.88

[[record]]
compound = "CCOC(=O)[C@@H]1[C@@H](OC)C(=O)N(C)C12CCN(C(=O)C(CC)CC)CC2"
numeric_result = 108.6

[[record]]
compound = "CCn1ncc2c1C(COC)CN(c1ncc(F)cn1)C2.O=C(O)C(F)(F)F.O=C(O)C(F)(F)F (centres undefined)"
numeric_result = 103.8

[[record]]
compound = "CCOCC(O)CN1CCN(C(=O)CC(C)(C)C)CC1 (centres undefined)"
numeric_result = 2.808

[[record]]
compound = "CCc1[nH]c2c(CNc3cncc(C(=O)N(C)C)n3)cc(C)cc2c1C"
numeric_result = -3.475

[[record]]
compound = "CCOC(=O)[C@@H]1[C@@H](O)C(=O)N(C)C12CCN(C(=O)c1ccco1)CC2"
numeric_result = 104.5

[[record]]
compound = "CC(C)(C)CC(=O)N1CCC(n2cc(C3(O)CCCC3)nn2)CC1"
numeric_result = 20.32

[[record]]
compound = "O=C(c1ccccn1)N1C[C@@H]2CC[C@H](C1)N(C(=O)CCC1CCCC1)C2"
numeric_result = -23.02

[[record]]
compound = "Cc1cc(C)nc(C2CCCN2C(=O)c2cnco2)n1 (centres undefined)"
numeric_result = 140.7

[[record]]
compound = "Cc1nccn1-c1ccc(C(C)NCc2ncc[nH]2)cc1 (centres undefined)"
numeric_result = -20.7

[[record]]
compound = "N#Cc1cc(F)ccc1CN1CCCCC1Cn1cncn1 (centres undefined)"
numeric_result = 7.796

[[record]]
compound = "CC(=O)N(Cc1ncc(C(C)C)o1)C1CCN(CCn2cccn2)C1 (centres undefined)"
numeric_result = 8.925

[[record]]
compound = "O=C(O)C(F)(F)F.O=C1CCCN1Cc1ncn2c1CN(Cc1cccs1)CCC2"
numeric_result = -6.025

[[record]]
compound = "Cc1noc(C)c1CNC(=O)N(C1CC1)C(C)c1ccco1 (centres undefined)"
numeric_result = -2.539

[[record]]
compound = "Cc1cc(C)n(CC2CCCN2Cc2cscn2)n1 (centres undefined)"
numeric_result = -19.73

[[record]]
compound = "COC(C(=O)N1CCN(Cc2noc(C)n2)CC1)c1ccccc1 (centres undefined)"
numeric_result = -8.523

[[record]]
compound = "Cc1cc(C)n(C(=O)c2cn(C)nc2S(=O)(=O)N2CCSCC2)n1"
numeric_result = -0.316

[[record]]
compound = "CC(=O)Nc1nc2c(s1)C1(CCN(C)CC1)Nc1ccccc1S2"
numeric_result = 104.1

[[record]]
compound = "Cc1ncsc1-c1nnc(C2CCN(Cc3ccccc3F)CC2)o1"
numeric_result = 106.9

[[record]]
compound = "CCn1ncc2c1C(COC)CN(S(=O)(=O)N(C)C)C2.O=C(O)C(F)(F)F (centres undefined)"
numeric_result = -1.525

[[record]]
compound = "O=C1CCCN1Cc1ncn2c1CN(C(=O)Cc1cccs1)CCC2"
numeric_result = 106.6

[[record]]
compound = "O=C1CCCN1Cc1ncn2c1CN(C(=O)Cc1ccccc1)CCC2"
numeric_result = 99.41

[[record]]
compound = "O=C1CCCN1Cc1ncn2c1CN(S(=O)(=O)c1cccs1)CCC2"
numeric_result = -2.152

[[record]]
compound = "CC(=O)Nc1nc2c(s1)C1(CCCC1)Nc1ccccc1S2"
numeric_result = 63.28

[[record]]
compound = "CCOCCN1Cc2cnn(C)c2C(COCC)C1.O=C(O)C(F)(F)F.O=C(O)C(F)(F)F (centres undefined)"
numeric_result = -55.01

[[record]]
compound = "CCOC(=O)[C@H]1[C@@H](O)C(=O)N(C)C12CCN(C(=O)OCC)CC2"
numeric_result = 113.4

